Just for reference, paper PMC9458059 is where these values come from.

# assay.system: hCA IX (Homo sapiens)
# procedure.details: CA inhibition by the esterase assay, hCA IX
# condition.context: human recombinant enzyme, esterase assay, 4-nitrophenylacetate as substrate
recorded.metric: IC50

>  <molecule>
O=c1ccc2ccc(OCc3cn([C@@H]4O[C@H](CO)[C@@H](O)[C@H](O)[C@H]4O)nn3)cc2o1 [Compound 10a]

>  <observed.measurement>
11 nM

$$$$
>  <molecule>
Cc1cc(=O)oc2cc(OCc3cn([C@@H]4O[C@H](CO)[C@@H](O)[C@H]4O)nn3)ccc12 [Compound 10p]

>  <observed.measurement>
98 nM

$$$$
>  <molecule>
C[C@@H]1O[C@H](n2cc(COc3ccc4ccc(=O)oc4c3)nn2)[C@H](O)[C@H](O)[C@H]1O [Compound 10g]

>  <observed.measurement>
124 nM

$$$$
